# experimental target: PACAP-R2 (Homo sapiens)
# Construct: expressed in transfected cells; host or cells: CHO cells
# Sequence (P32241 31-457): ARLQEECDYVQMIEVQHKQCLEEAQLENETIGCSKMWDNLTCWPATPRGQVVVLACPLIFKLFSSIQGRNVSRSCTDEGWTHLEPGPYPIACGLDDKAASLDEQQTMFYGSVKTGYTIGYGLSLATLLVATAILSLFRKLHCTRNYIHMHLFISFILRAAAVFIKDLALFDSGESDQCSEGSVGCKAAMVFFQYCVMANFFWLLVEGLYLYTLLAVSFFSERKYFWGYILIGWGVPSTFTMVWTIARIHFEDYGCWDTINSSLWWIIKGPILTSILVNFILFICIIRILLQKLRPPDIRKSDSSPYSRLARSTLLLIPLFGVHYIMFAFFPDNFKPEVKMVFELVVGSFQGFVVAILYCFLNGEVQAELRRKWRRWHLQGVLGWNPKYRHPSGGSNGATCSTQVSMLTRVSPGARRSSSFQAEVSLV
# measurement description: Cyclic AMP SPA on CHO cells transfected with PACAP-R2
# Format: cell-based
# test settings: cAMP SPA, concentration at which 50% of maximum PACAP27 activity is achieved, NA = no detectable activities, read-out: R2 EC50
pEC50: −log10 of the molar value. No end group written: not given here.
Lab note: anything with pEC50 at or over 7 counts as TRUE; the rest go in FALSE.

// below: answered substances
{"columns": ["substance", "experimental target", "discrete label"],
 "data": [
  ["HSDAVFTDNYTRLRKQMAVKKYLNSIKKK [Peptide R3P58]", "PACAP-R2 (Homo sapiens)", "TRUE"],
  ["HSDKIFTDSYSRYRKQMAVKKYLAAVL-NH2 [PAC4]", "PACAP-R2 (Homo sapiens)", "TRUE"],
  ["H-HSDAVFTDNYTRLRKQMAAKKYLNSIKNKD [Peptide R3P155]", "PACAP-R2 (Homo sapiens)", "TRUE"],
  ["HSDAVFTDNYTRLRKQVAVKKYLQSILKKR [Peptide R3P88]", "PACAP-R2 (Homo sapiens)", "TRUE"]
]}

Is it the case that HSDAVFTDNYTRLRKQMAKKKYLNSIPNRI [rR3P181] has pEC50 reaching or exceeding 7?
FALSE

Is it the case that HSDAVFTENYTRLRKQMAVKKYLNSLKK-NH2 [Peptide R3P7] has pEC50 reaching or exceeding 7?
TRUE

Where do the numbers come from? From patent US6972319B1.
